biological target: human BRD4 bromodomain II (Homo sapiens, UniProt O60885); construct: human BRD4 bromodomain II [based on Genbank NM_058243, residues 349-460]; host or cells: E. coli; assay: Bromodomain binding assay (AlphaScreen), BRD4 BDII; conditions: BRD4 BDII AlphaScreen assay; read-out: BRD4 BD2 IC50
Observation Type: IC50

Solved cases (10 shown):
Compound	IC50
Cc1cc(-c2ccc(-n3ccn(C)c3=O)c(Cl)c2)c(O)c(-c2cnc(N(C)C)c(N3CCC4(CCCN4C(C)C)C3)c2)n1 (centres unmarked)	1 to 10 nM
CN1CCN(c2ccc(-c3cc(F)cc(-c4cccc(N5CCN(C(C)(C)C)CC5)c4)c3O)cc2Cl)C1=O	1 to 10 nM
COc1ncc(-c2cc(F)cc(-c3ccc(-n4ccn(C)c4=O)c(Cl)c3)c2O)cc1N1CC[C@@]2(CCCN2C(C)C)C1	0.01 to 1 nM
Cc1cc(-c2ccc(-n3ccn(C)c3=O)c(Cl)c2)c(O)c(-c2ccnc(N3CC[C@@](C)(O)C3)c2)n1	1 to 10 nM
COc1ncc(-c2nc(C)cc(-c3ccc(-n4ccn(C)c4=O)c(C)c3)c2O)cc1N1CCN(C(C)(C)C)CC1	1 to 10 nM
COc1ncc(-c2cc(F)cc(-c3ccc(-n4ccn(C)c4=O)c(Cl)c3)c2O)cc1N1CC(C)(C)[C@](C)(O)C1	1 to 10 nM
Cc1cc(-c2ccc(-n3ccn(C)c3=O)c(Cl)c2)c(O)c(-c2cccc(N3CCC4(CCN4C(C)C)C3)c2)n1 (centres unmarked)	0.01 to 1 nM
CNc1ncc(-c2nc(C)cc(-c3ccc(-n4ccn(C)c4=O)c(Cl)c3)c2O)cc1N1CCC2(CCCN2C(C)C)C1 (centres unmarked)	1 to 10 nM
Cn1ccn(-c2ccc(-c3ccnc(-c4cccc(N5CCN(C(C)(C)C)CC5)c4)c3O)cc2Cl)c1=O	1 to 10 nM
COc1ncc(-c2nc(C)cc(-c3ccc(-n4ccn(C)c4=O)c(Cl)c3)c2O)cc1N1CC[C@]2(CCN2C(C)C)C1	0.01 to 1 nM

# return IC50 for each item in the list
1. CC(C)c1cc(-c2cc(F)cc(-c3cccc(N4CCN(C(C)(C)C)CC4)c3)c2O)cc(Cl)c1-n1ccn(C)c1=O [Example 935]
2. COCC(C)(C)N1CCN(c2cc(-c3cc(F)cc(-c4ccc(-n5ccn(C)c5=O)c(Cl)c4)c3O)cnc2OC)CC1
3. CN(C)c1ncc(-c2cc(F)cc(-c3ccc(-n4ccn(C)c4=O)c(Cl)c3)c2O)cc1N1CCN(C(C)(C)C)CC1
4. Cn1ccn(-c2ccc(-c3cc(F)cc(-c4cccc(-c5cccc(N)c5)c4)c3O)cc2Cl)c1=O

> 100 nM
1 to 10 nM
0.01 to 1 nM
10 to 100 nM

* * *

system: human SKM-1 acute myeloid leukemia cells; assay: SKM-1 antiproliferation cell-based assay (ATPlite); settings: Homo sapiens, SKM-1, 96 h, SKM-1 antiproliferation assay, 4 days, Table C2
Exercise: state measured GI50 for each of the compounds provided.

Solved cases (3 shown):
Compound	Value Observed
C[C@@H]1CN(c2cc(-c3cc(F)cc(-c4ccc(-n5ccn(C)c5=O)c(Cl)c4)c3O)cn(CCCO)c2=O)CCN1	30 to 300 nM
CN1CCN(c2c(Cl)cc(-c3cc(F)cc(-c4ccnc(N5CCNCC5)c4)c3O)cc2Cl)C1=O	300 to 3000 nM
Cc1ncc(-c2cc(F)cc(-c3ccc(-n4ccn(C)c4=O)c(Cl)c3)c2O)cc1N1CC(O)(CO)C1	0.3 to 30 nM

# return GI50 for each item in the list
1. CSc1ncc(-c2cc(F)cc(-c3ccc(-n4ccn(C)c4=O)c(Cl)c3)c2O)cc1N1CCN(C(C)C)CC1
2. CC(=O)Nc1ccc(-c2cccc(-c3ccc(C#N)c(N4CCNCC4)c3)c2O)cc1F

0.3 to 30 nM
30 to 300 nM

# return GI50 for each item in the list
1. Cn1ccn(-c2ccc(-c3cc(F)cc(-c4ccnc(N5CCCC6(CCN6)C5)c4)c3O)cc2Cl)c1=O (stereo not shown)
2. Cn1ccn(-c2ccc(-c3cc(F)cc(-c4ccnc(N5CC6CCC(C5)C6(C)O)c4)c3O)cc2Cl)c1=O (stereo not shown)

1. 0.3 to 30 nM
2. 30 to 300 nM

* * *

molecular target: human BRD4 bromodomain II (Homo sapiens, UniProt O60885); construct: human BRD4 bromodomain II [based on Genbank NM_058243, residues 349-460]; host or cells: E. coli; test: Bromodomain binding assay (AlphaScreen), BRD4 BDII; settings: AlphaScreen assay, Table C2; read-out: BRD4 BDII IC50
pIC50: −log10 of the molar value.
Exercise: state measured pIC50 for each of the compounds provided.

Compound	pIC50
C[C@@H]1CN(c2cc(-c3cc(Cl)cc(-c4ccc(-n5ccn(C)c5=O)c(Cl)c4)c3O)ccn2)CCN1	8.00 to 9.00
C[C@@H]1CN(c2cc(-c3cc(F)cc(-c4ccc(-n5ccn(C)c5=O)c(Cl)c4)c3O)cc3cccnc23)CCN1	9.00 to 11.00
CC(=O)Nc1ccc(-c2cccc(-c3ccnc(N4CCNCC4)c3)c2C(F)F)cc1F	< 7.00

What measured pIC50 goes with CC(=O)Nc1c(F)cc(-c2cccc(-c3cc(N4CCNCC4)no3)c2O)cc1F [Example 86, 2,2,2-trifluoroacetate] ?
7.00 to 8.00

* * *

Exercise: state measured IC50 for each of the molecules provided.
target: human BRD4 bromodomain II (Homo sapiens, UniProt O60885); construct: human BRD4 bromodomain II [based on Genbank NM_058243, residues 349-460]; host or cells: E. coli; assay: Bromodomain binding assay (AlphaScreen), BRD4 BDII; conditions: AlphaScreen assay, Table C2; read-out: BRD4 BDII IC50

# return IC50 for each item in the list
1. CC(=O)Nc1ccc(-c2cccc(-c3cc(F)cc(N4CCNCC4)c3)c2O)cc1F [Example 178]
2. Cn1ccn(-c2ccc(-c3cc(F)cc(-c4ccnc(N5CCN(C6CCC6)CC5)c4)c3O)cc2Cl)c1=O [Example 619]
3. CN[C@H]1CCCN(c2cc(-c3cc(F)cc(-c4ccc(-n5ccn(C)c5=O)c(Cl)c4)c3O)ccn2)C1 [Example 440]

1: 10 to 100 nM; 2: 0.01 to 1 nM; 3: 0.01 to 1 nM

* * *

Exercise: state measured pIC50 for each of the compounds provided.
target: human BRD4 bromodomain II (Homo sapiens, UniProt O60885); construct: human BRD4 bromodomain II [based on Genbank NM_058243, residues 349-460]; host or cells: E. coli; experiment: Bromodomain binding assay (AlphaScreen), BRD4 BDII; details: BRD4 BDII AlphaScreen assay; read-out: BRD4 BD2 IC50
pIC50: −log10 of the molar value.

# return pIC50 for each item in the list
1. [2H]C([2H])([2H])n1ccn(-c2ccc(-c3cc(C)nc(-c4cccc(N5CCN(C(C)(C)C)CC5)c4)c3O)cc2Cl)c1=O [Example 991]
2. CNc1cc(-c2ccc(-n3ccn(C)c3=O)c(Cl)c2)c(O)c(-c2cccc(N3CCN(C(C)(C)C)CC3)c2)n1 [Example 1031]
3. Cc1cc(-c2ccc(-n3ccn(C)c3=O)c(Cl)c2)c(O)c(-c2cccc(N3CCC4(CCCN4C(C)C)C3)c2)n1 (stereo not shown) [Example 981]

1. 8.00 to 9.00
2. 8.00 to 9.00
3. 8.00 to 9.00

# return pIC50 for each item in the list
1. CN(C)c1ncc(-c2nccc(-c3ccc(-n4ccn(C)c4=O)c(Cl)c3)c2O)cc1N1CCN(C(C)(C)C)CC1 [Example 988]
2. COc1ncc(-c2cc(F)cc(-c3ccc(-n4ccn(C)c4=O)c(Cl)c3)c2O)cc1N1CCN(C2CCC2)CC1 [Example 880]
3. Cc1ncc(-c2nccc(-c3ccc(-n4ccn(C)c4=O)c(Cl)c3)c2O)cc1N1CCN(C(C)(C)C)CC1 [Example 993]
4. CC(C)N1[C@H](C)CN(c2cccc(-c3cc(F)cc(-c4ccc(-n5ccn(C)c5=O)c(Cl)c4)c3O)c2)C[C@@H]1C [Example 906]

1: 8.00 to 9.00; 2: 9.00 to 11.00; 3: 7.00 to 8.00; 4: 9.00 to 11.00

* * *

target: human BRD4 bromodomain II (Homo sapiens, UniProt O60885); construct: human BRD4 bromodomain II [based on Genbank NM_058243, residues 349-460]; host or cells: E. coli; assay: Bromodomain binding assay (AlphaScreen), BRD4 BDII; details: AlphaScreen assay, Table C2; read-out: BRD4 BDII IC50
Observation Type: IC50

Solved cases (6 shown):
Smiles Notation	Value Observed
O=C1CCCCN1c1ccc(-c2cccc(-c3ccnc(N4CCNCC4)c3)c2O)cc1F	10 to 100 nM
CCOc1cccc(-c2cccc(-c3ccc(NC(C)=O)c(F)c3)c2O)c1	> 100 nM
CN1CCN(c2ccc(-c3cccc(-c4ccnc(N5CC6(CNC6)C5)c4)c3O)cc2F)C1=O	10 to 100 nM
CN1CCN(c2ccc(-c3cccc(-c4ccnc(N5CCC(N)CC5)c4)c3O)cc2Cl)C1=O	1 to 10 nM
CN1CCN(c2ccc(-c3cc(F)cc(-c4ccnc(N5CCNc6ccccc65)c4)c3O)cc2Cl)C1=O	> 100 nM
CC(=O)Nc1ccc(-c2cccc(-c3cc(N4CCNCC4)nc4[nH]ccc34)c2O)cc1F	10 to 100 nM

# return IC50 for each item in the list
1. Cn1ccn(-c2ccc(-c3cc(F)cc(-c4ccnc(N5CCN[C@H](CO)C5)c4)c3O)cc2Cl)c1=O
2. CC(=O)Nc1ncc(-c2cc(F)cc(-c3ccc(N4CCN(C)C4=O)c(Cl)c3)c2O)cc1N1CCNCC1

1 to 10 nM
1 to 10 nM
